Give measured Cell viability (%) Calvarial cell for each item. Keep answers brief.
Test system: Osteoblasts (Calvarial cells)
assay text: Cytotoxicity test (MTT)
recorded conditions: 1 μM compound, 72 hours, in comparison with vehicle control
Return type: number; implicit unit %.

Param item: NC1CCN(c2ccc([N+](=O)[O-])c(Nc3ccc(N4CCCC(CO)C4)c(F)c3)n2)CC1 (centres unmarked) [Compound 284] ; param system: Osteoblasts (Calvarial cells); output Cell viability (%) Calvarial cell: 100

Param item: COc1ccc(Nc2nc(N(C)CCO)ccc2[N+](=O)[O-])cc1 [Compound 24] ; param system: Osteoblasts (Calvarial cells); output Cell viability (%) Calvarial cell: 99

Param item: CNc1ccc([N+](=O)[O-])c(Nc2ccc(N3CCCC(CO)C3)c(F)c2)n1 (centres unmarked) [Compound 275] ; param system: Osteoblasts (Calvarial cells); output Cell viability (%) Calvarial cell: 121

Param item: NC(=O)C1CCN(c2ccc(Nc3nc(N4CCC(O)CC4)ccc3[N+](=O)[O-])cc2F)CC1 [Compound 293] ; param system: Osteoblasts (Calvarial cells); output Cell viability (%) Calvarial cell: 104

Param item: O=[N+]([O-])c1ccc(NC2CC2)nc1Nc1ccc(N2CCCC(CO)C2)c(F)c1 (centres unmarked) [Compound 288] ; param system: Osteoblasts (Calvarial cells); output Cell viability (%) Calvarial cell: 103

Param item: O=[N+]([O-])c1ccc(N2CCNCC2)nc1Nc1ccc(N2CCC(O)CC2)c(F)c1 [Compound 245] ; param system: Osteoblasts (Calvarial cells); output Cell viability (%) Calvarial cell: 101

Param item: CC(C)(C)Nc1ccc([N+](=O)[O-])c(Nc2ccc(N3CCOCC3)c(F)c2)n1 [Compound 199] ; param system: Osteoblasts (Calvarial cells); output Cell viability (%) Calvarial cell: 118

Param item: CN(CC1OCCO1)c1ccc([N+](=O)[O-])c(Nc2ccc(C(C)(C)C)cc2)n1 [Compound 33] ; param system: Osteoblasts (Calvarial cells); output Cell viability (%) Calvarial cell: 93

---

Give measured activity at 1 µM for each item. Keep answers brief.
System: Osteoblasts (Calvarial cells)
assay text: Alkaline phosphatase (ALP) activity in osteoblasts (Calvarial cells)
Format: cell-based, mice
recorded conditions: Mus musculus, 72 h; 1 μM compound, 3 days, Calvarial cell; read-out: ALP activity (1 μM, % of Control) Calvarial cell
Return type: number; implicit unit %.

Given item "Cc1nc(-c2ccc(Nc3nc(NCc4ccncc4)ccc3[N+](=O)[O-])cc2)cs1" , the value recorded as its activity at 1 µM is 122

Given item "Cc1nc(-c2ccc(Nc3nc(N4CCOCC4)ccc3[N+](=O)[O-])cc2)cs1" , the value recorded as its activity at 1 µM is 117

Given item "CC(C)Nc1ccc([N+](=O)[O-])c(Nc2ccc(N)cc2)n1" , the value recorded as its activity at 1 µM is 127

Given item "Nc1cccc(Nc2nc(NCc3cccnc3)ccc2[N+](=O)[O-])c1" , the value recorded as its activity at 1 µM is 116

Given item "Cc1nc(-c2ccc(Nc3nc(NC(C)C)ccc3[N+](=O)[O-])cc2)cs1" , the value recorded as its activity at 1 µM is 122

Given item "CC(=O)c1cccc(Nc2nc(N3CCOCC3)ccc2[N+](=O)[O-])c1" , the value recorded as its activity at 1 µM is 121

Given item "CC(=O)c1cccc(Nc2nc(N3CCNCC3)ccc2[N+](=O)[O-])c1" , the value recorded as its activity at 1 µM is 116

Given item "CC(=O)c1cccc(Nc2nc(NC(C)(C)C)ccc2[N+](=O)[O-])c1" , the value recorded as its activity at 1 µM is 112

Given item "N#Cc1ccc(Nc2nc(N3CCC(O)CC3)ccc2[N+](=O)[O-])cc1" , the value recorded as its activity at 1 µM is 111

Given item "CC(=O)c1cccc(Nc2nc(NCc3cccnc3)ccc2[N+](=O)[O-])c1" , the value recorded as its activity at 1 µM is 122

Given item "O=[N+]([O-])c1ccc(N2CCC(O)CC2)nc1Nc1ccc(-n2ccnc2)cc1" , the value recorded as its activity at 1 µM is 161

Given item "N#Cc1cccc(Nc2nc(NCCCn3ccnc3)ccc2[N+](=O)[O-])c1" , the value recorded as its activity at 1 µM is 134

Given item "Cc1nc(-c2ccc(Nc3nc(-n4ccnc4C(C)C)ccc3[N+](=O)[O-])cc2)cs1" , the value recorded as its activity at 1 µM is 122

Given item "Nc1cccc(Nc2nc(NCc3ccncc3)ccc2[N+](=O)[O-])c1" , the value recorded as its activity at 1 µM is 123

Given item "O=[N+]([O-])c1ccc(N2CCNCC2)nc1Nc1ccc(N2CCOCC2)cc1" , the value recorded as its activity at 1 µM is 115

Given item "CNc1ccc([N+](=O)[O-])c(Nc2ccc(-c3csc(C)n3)cc2)n1" , the value recorded as its activity at 1 µM is 198

Given item "NC1CCN(c2ccc([N+](=O)[O-])c(Nc3ccc(N4CCOCC4)cc3)n2)CC1" , the value recorded as its activity at 1 µM is 127

Given item "O=[N+]([O-])c1ccc(NCc2cccnc2)nc1Nc1ccc(N2CCOCC2)cc1" , the value recorded as its activity at 1 µM is 127

Given item "CC(C)(C)c1ccc(Nc2nc(NCCc3ccccn3)ccc2[N+](=O)[O-])cc1" , the value recorded as its activity at 1 µM is 126

Given item "CC(C)c1nccn1-c1ccc([N+](=O)[O-])c(Nc2ccc(C#N)cc2)n1" , the value recorded as its activity at 1 µM is 112

Given item "Cc1ccc(Nc2nc(N3CCC(N)CC3)ccc2[N+](=O)[O-])cc1" , the value recorded as its activity at 1 µM is 115

Given item "CC(C)(C)Nc1ccc([N+](=O)[O-])c(Nc2ccc(N)cc2)n1" , the value recorded as its activity at 1 µM is 131

Given item "CNc1ccc([N+](=O)[O-])c(Nc2ccc(N)cc2)n1" , the value recorded as its activity at 1 µM is 112

Given item "CC(C)CNc1ccc([N+](=O)[O-])c(Nc2ccc(N3CCOCC3)cc2)n1" , the value recorded as its activity at 1 µM is 143

Given item "Cc1nc(-c2ccc(Nc3nc(N4CCC(O)CC4)ccc3[N+](=O)[O-])cc2)cs1" , the value recorded as its activity at 1 µM is 113

Given item "O=[N+]([O-])c1ccc(N2CCC(O)CC2)nc1Nc1ccc(N2CCOCC2)cc1" , the value recorded as its activity at 1 µM is 122

Given item "COc1ccc(Nc2nc(NCc3ccncc3)ccc2[N+](=O)[O-])cc1" , the value recorded as its activity at 1 µM is 121
